# TEST SYSTEM: HIV-1 integrase (wild-type IN) (Human immunodeficiency virus type 1 group M subtype B, UniProt P12497)
# ASSAY: HIV-1 integrase strand transfer assay (32P-labeled 21-mer, gel)
# Format: biochemical
# RUN PARAMETERS: Table 53, structurally diverse compounds; read-out: IN inhibition activity Strand transfer
Each record is given y if its reported IC50 is strictly below 30 µM. Records at or above 30 µM are given n.

Illustrative cases are given below, each with its answer.
COMPOUND	DISCRETE LABEL
O=C(O)C1CCCCC1C(=O)Nc1ccc(Oc2cccc3ccccc23)cc1 (stereo not shown)	n
CCOc1cc(CNc2nn[nH]n2)cc(Cl)c1OCc1ccc(Cl)cc1	n
O=C(O)CN1C(=O)/C(=C2\SC(=S)N(C(Cc3ccccc3)C(=O)O)C2=O)c2ccccc21 (stereo not shown)	n
O=C(O)C(O)C(O)c1nc2cc3ccccc3cc2[nH]1 (stereo not shown)	n
O=C(Nc1ccccc1C(=O)O)c1cccc(S(=O)(=O)Nc2ccc(Oc3ccccc3)cc2)c1	y
Cc1ccc(C(=O)O)cc1NC(=O)CSc1nc2ccccc2s1	y

Query :: hey, is IC50 for Cc1ccc2nc(-c3ccc(NC(=O)/C=C/C(=O)O)cc3)sc2c1 lower than 30 µM or not?
Result :: y
